measurement.target: T1, ECF14_1324
T1 chain: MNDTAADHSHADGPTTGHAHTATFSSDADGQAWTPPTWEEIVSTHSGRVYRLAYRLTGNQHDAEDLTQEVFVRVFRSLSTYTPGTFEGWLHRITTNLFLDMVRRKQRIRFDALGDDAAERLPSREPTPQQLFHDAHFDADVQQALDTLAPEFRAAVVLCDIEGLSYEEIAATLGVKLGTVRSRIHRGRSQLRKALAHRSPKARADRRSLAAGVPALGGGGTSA
Answer each item with its documented fold repression.
Keep the answer to the number alone.

Lab note: measured fold repression of AS27_1331 (protein) MSAADKDPDKHSADADPPLTVELLADLQAGLLDDATAARIRSRVRSDPQAQQILRALNRVRRDVAAMGADPAWGPAARPAVVDSISAALRSARPNSSPGAAHAARPHVHPVRMIAGAAGLCAVATAIGVGAVVDAPPPAPSAPTTAQHITVSKPAPVIPLSRPQVLDLLHHTPDYGPPGGPLGDPSRRTSCLSGLGYPASTPVLGAQPIDIDARPAVLLVIPADTPDKLAVFAVAPHCSAADTGLLASTVVPRA was 5.93

Lab note: measured fold repression of AS11_987 (protein) MNKHPDNNLLEAYASGSIDAVSGLVVATHLETCSKCRAYVNQVEASQANTVSESPSEYSPEFDDMLNDIINAEPVNDNVVIQDTAFVNVAGKSFELPKTLVRFSDLVGSWRSYGGKVFSAQIDLGEDARVSLMYIGENVQIPQHTHRGLESTLVLHGGFSDEDGQYEEGDLMVRDASVKHSPFTQEGEDCLCLTVLTEPMIFTQGVARIFNLFGKGLYP was 3.15

Lab note: measured fold repression of AS35_3582 (protein) MNPQKHSASVAEEQMLAHFRAHAPQQPAPALDQAILAAARRQAAHVEPARSWWRRWLEASRRPRWQAAFASLLGVALVLGLVSHNVLDDAERQARPEVAFSDVPLRDGVAGAAAAKRAMRAPAAPAPLSGEMSEPPALLASYASSGEAPQLMAEAAPPAPAALADRPPAQAAQQAKVQAALAGDFVAQARGKAVAVKPEVLDEALGAVLALREQGKTEQAATQLAELQKRFPGENLVERLERLATIAASARKRP was 13.1
